Data origin, for the record: patent US11597760

- Study System: human C5 (human)
- Experimental Details: SPR, pH 7.4, 37C
Can you tell me pKd for the items I'm about to list?
Quick note: pKd means taking -log10 of the concentration in moles per liter.

Asked: pKd for 305LO16-SG422 (antibody, V domains shown) VH: QVQLVESGGGLVQPGRSLRLSCAASGFTVHSSYYMAWVRQAPGKGLEWVGAIFTGSGAEYKAEWVKGRFTISRDNSKNTLYLQMNSLRAEDTAVYYCASDAGYDYPTHAMHYWGRGTLVTVSS VL: DIQMTQSPSSLSASVGDRVTITCRASQGISSSLAWYQQKPGKAPKLLIYGASETESGVPSRFSGSGSGTDFTLTISSLQPEDFATYYCQNTKVGSSYGNTFGGGTKVEIK ?
Given back: 9.49

Asked: Try the binder 305LO20-SG422 (antibody, V domains shown) VH: QVQLVESGGGLVQPGGSLRLSCAASGFTVHSSYYMAWVRQAPGKGLEWVGAIFTGSGAEYKAEWAKGRVTISKDTSKNQVVLTMTNMDPVDTATYYCASDAGYDYPTHAMHYWGQGTLVTVSS VL: DIQMTQSPSSLSASVGDRVTITCRASQGISSSLAWYQQKPGQAPRLLIYGASETESGVPSRFSGSGSGTDFTLTISSLQPEDFATYYCQNTKVGSSYGNTFGGGTKVEIK
Given back: 9.46

Asked: Try the binder 305LO23-SG115 (antibody, V domains shown) VH: QVQLVESGGGLVQPGGSLRLSCAASGFTVHSSYYMAWVRQAPGKGLEWVSGIFTGSGATYKAEWAKGRVTISKDTSKNQVVLTMTNMDPVDTATYYCASDAGYDYPTHAMHYWGQGTLVTVSS VL: DIQMTQSPSSLSASVGDRVTITCRASQGISSSLAWYQQKPGQAPRLLIYGASTTQSGVPSRFSGSGSGTDFTLTISSLQPEDFATYYCQNTKVGSSYGNTFGGGTKVEIK
Given back: 9.56

Asked: Try the binder 305LO20-SG115 (antibody, V domains shown) VH: QVQLVESGGGLVQPGGSLRLSCAASGFTVHSSYYMAWVRQAPGKGLEWVGAIFTGSGAEYKAEWAKGRVTISKDTSKNQVVLTMTNMDPVDTATYYCASDAGYDYPTHAMHYWGQGTLVTVSS VL: DIQMTQSPSSLSASVGDRVTITCRASQGISSSLAWYQQKPGQAPRLLIYGASETESGVPSRFSGSGSGTDFTLTISSLQPEDFATYYCQNTKVGSSYGNTFGGGTKVEIK
Given back: 9.49
